B1: KRT18 (parent)
chain: KSQDLAKIMADIRAQYDELARKNR

# Variants of: B1
# ASSAY PROTOCOL: protein stability index of a GFP-peptide fusion (GPS, HEK-293T) (PSI 1-6); higher = more stable;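 also: lentivirally expressed fusions sorted by FACS into six bins by GFP to DsRed ratio, PSI derived from sequencing read proportions per bin multiplied by bin number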
# ASSAY SETUP: c terminus: a fixed tail appended
The variants listed here are annotated with their protein stability index.
Respond numerically, and do not add a unit to the figure.

POLYMER SEQUENCE	protein stability index
KSQDLAKIMADIRAQYDELARQNR [K22Q]	2.92
KSQDLAKIMADIRAQYDELSRKNR [A20S]	2.87

I am curious: what protein stability index value has been reported for KSQDLAKIMCDIRAQYDELARKNR [A10C] ? 2.91
